Target: human CLDN18.2 (human)
Assay: cell-based or functional assay
quantity: CDC EC50, KATO-III target cells, human serum (µg/mL)
Unit µg/mL implied. Number only.

# input Requested field: CDC EC50, KATO-III target cells, human serum. Item: 7004-09hu09 (antibody, human IgG1, kappa, V domains shown, humanized antibody of murine 44F7, human IgG1/kappa constant regions) VH: QVQLVQSGAEVKKPGASVKVSCKASGYTFTSYNMHWVRQAPGQGLEWMGTIYPGNGDTSYNQKFQGRVTMTRDKSTSTVYMELSSLRSEDTAVYFCARGGYYGNSLDYWGQGTLVTVSA VL: DIVMTQSPDSLAVSLGERATINCKSSQSLLNSGNQKNYLAWYQQKPGQPPKLLIYWASTRESGVPDRFSGSGSGTDFTLTISSLQAEDVAVYYCQNAYYYPFTFGQGTKLEIKR
# output 0.33
